Provenance of the data: patent US11566022B2

TARGET_SYSTEM: HiBit-WIZ fusion protein (Homo sapiens, UniProt O95785+Q96SW2)
Sequence (O95785 whole entry, the tested form may be a part): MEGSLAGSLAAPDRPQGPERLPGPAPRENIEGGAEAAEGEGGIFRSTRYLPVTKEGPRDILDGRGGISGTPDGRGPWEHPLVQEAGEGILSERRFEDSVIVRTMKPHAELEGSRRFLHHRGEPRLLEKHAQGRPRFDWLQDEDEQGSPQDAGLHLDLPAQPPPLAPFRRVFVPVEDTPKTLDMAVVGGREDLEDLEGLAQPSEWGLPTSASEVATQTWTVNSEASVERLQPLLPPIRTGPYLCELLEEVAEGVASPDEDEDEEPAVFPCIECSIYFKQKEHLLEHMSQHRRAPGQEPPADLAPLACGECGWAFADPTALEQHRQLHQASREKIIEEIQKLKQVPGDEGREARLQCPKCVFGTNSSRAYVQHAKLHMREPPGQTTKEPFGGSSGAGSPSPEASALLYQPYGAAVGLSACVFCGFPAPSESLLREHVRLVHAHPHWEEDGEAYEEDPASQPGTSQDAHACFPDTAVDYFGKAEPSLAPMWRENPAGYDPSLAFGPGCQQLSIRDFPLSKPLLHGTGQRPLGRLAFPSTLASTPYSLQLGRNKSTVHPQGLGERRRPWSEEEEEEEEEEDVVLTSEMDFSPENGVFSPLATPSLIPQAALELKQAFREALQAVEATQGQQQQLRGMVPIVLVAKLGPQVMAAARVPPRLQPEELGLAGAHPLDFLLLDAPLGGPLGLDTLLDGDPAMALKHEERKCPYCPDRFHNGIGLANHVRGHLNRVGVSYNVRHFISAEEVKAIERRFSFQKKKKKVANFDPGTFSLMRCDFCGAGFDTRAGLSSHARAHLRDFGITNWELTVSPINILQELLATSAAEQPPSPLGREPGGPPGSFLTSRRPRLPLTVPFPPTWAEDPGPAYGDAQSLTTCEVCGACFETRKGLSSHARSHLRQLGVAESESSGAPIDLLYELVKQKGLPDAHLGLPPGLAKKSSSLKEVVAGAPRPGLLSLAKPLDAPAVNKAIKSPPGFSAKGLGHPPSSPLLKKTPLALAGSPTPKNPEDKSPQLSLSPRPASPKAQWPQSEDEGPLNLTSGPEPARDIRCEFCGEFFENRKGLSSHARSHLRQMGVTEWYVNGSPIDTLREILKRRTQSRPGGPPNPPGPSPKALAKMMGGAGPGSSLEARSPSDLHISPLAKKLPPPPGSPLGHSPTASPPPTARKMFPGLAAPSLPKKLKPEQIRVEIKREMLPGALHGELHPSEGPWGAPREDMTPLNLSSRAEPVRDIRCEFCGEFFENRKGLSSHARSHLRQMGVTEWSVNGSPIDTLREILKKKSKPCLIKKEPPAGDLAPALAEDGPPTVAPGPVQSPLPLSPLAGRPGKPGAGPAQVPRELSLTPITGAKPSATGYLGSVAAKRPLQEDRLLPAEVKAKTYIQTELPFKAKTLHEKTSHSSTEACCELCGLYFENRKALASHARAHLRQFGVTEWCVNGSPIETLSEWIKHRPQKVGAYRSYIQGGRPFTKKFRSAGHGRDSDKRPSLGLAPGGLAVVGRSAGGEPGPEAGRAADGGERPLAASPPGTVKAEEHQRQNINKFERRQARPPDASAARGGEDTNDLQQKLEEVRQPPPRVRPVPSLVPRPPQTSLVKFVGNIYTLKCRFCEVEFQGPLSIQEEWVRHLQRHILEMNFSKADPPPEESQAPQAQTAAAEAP
Sequence (Q96SW2 whole entry, the tested form may be a part): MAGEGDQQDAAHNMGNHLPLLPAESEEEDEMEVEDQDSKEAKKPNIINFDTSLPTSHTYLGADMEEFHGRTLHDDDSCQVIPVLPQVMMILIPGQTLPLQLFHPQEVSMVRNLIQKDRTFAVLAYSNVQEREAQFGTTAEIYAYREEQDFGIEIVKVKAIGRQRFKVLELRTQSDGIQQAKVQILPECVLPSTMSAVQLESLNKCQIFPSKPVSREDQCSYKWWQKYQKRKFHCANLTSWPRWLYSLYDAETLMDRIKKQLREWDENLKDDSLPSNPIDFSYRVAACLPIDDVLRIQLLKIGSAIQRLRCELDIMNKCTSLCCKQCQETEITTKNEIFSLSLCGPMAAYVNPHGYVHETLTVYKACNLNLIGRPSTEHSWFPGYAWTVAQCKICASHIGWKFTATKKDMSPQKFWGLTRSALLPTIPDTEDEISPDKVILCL
Sequence (Q16531 whole entry partner, the tested form may be a part): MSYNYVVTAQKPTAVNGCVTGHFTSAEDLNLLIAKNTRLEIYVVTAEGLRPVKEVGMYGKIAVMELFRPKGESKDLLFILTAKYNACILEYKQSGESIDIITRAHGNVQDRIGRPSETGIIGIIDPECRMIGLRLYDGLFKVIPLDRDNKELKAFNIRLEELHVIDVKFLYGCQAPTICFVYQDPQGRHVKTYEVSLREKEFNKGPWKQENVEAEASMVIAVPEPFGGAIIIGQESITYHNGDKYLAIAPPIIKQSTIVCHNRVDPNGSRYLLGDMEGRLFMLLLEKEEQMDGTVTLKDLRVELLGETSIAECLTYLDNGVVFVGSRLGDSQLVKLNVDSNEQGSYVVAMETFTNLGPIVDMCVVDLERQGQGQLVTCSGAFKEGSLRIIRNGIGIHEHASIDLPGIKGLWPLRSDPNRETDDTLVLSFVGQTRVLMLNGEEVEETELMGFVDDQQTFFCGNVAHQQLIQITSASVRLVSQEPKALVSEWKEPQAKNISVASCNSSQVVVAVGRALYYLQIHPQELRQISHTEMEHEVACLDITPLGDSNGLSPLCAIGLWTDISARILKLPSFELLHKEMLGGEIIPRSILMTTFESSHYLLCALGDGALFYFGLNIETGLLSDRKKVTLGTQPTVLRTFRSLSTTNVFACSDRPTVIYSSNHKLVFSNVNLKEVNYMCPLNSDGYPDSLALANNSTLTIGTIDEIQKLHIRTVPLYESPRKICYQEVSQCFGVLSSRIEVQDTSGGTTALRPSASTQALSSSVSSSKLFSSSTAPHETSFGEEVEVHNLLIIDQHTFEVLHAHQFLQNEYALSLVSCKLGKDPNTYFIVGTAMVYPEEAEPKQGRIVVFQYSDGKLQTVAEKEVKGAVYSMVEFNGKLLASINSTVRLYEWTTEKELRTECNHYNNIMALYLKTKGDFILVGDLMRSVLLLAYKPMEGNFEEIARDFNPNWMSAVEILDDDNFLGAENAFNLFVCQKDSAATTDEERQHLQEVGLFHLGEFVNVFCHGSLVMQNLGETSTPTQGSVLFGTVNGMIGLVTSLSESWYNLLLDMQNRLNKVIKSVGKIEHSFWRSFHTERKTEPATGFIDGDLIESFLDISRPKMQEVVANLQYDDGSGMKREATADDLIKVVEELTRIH
METHOD_NOTES: Quantification of WIZ protein levels in HiBit tag fusion protein assay (WIZ HiBit assay in 293T cells)
Type: cell-based
MEASUREMENT_PARAMETERS: HEK-293T, DMSO-normalized, curve-fitted percentage of WIZ-HiBit remaining at 25 uM; 293T cells; read-out: WIZ Amax
MEASURE: remaining activity at up to 25 µM (%)
Could you give me the number in %? Just the number is fine.

Look over these answered cases.
| COMPOUND | remaining activity at up to 25 µM (%) |
| --- | --- |
| COc1ccc(CN2CCCC[C@H]2COc2ccc3c(c2)CN(C2CCC(=O)NC2=O)C3=O)cn1 (stereo partly shown) [Compound I-50bf] | 49.1 |
| CC1(c2ccc(C(=O)N3CCCC[C@H]3COc3ccc4c(c3)CN(C3CCC(=O)NC3=O)C4=O)cc2)COC1 (stereo partly shown) [Compound I-72gc] | 41.7 |
| COC1CCC(CN2CCCCC2C(C)Oc2ccc3c(c2)CN(C2CCC(=O)NC2=O)C3=O)CC1 (single isomer, unassigned) [Compound I-219] | 26.1 |

input: Any idea what remaining activity at up to 25 µM was measured for N#CCCN1CCN(CC(=O)N2CCCC[C@H]2COc2ccc3c(c2)CN(C2CCC(=O)NC2=O)C3=O)CC1 (stereo partly shown) [Compound I-72x] ?
output: 100
